Test: Single ascending dose clinical study in Chinese healthy volunteers (CTR20180791): pharmacokinetics
Format: in vivo, human
Details: human, in vivo, oral, 50 mg, 50 mg single dose, fasted, Chinese healthy volunteers
experimental readout: AUC (ng·h/mL)
State just the number; it will be interpreted in ng·h/mL.

Specify measured AUC for CS(=O)(=O)n1cc2c(n1)CN([C@@H]1C[C@H](N)[C@@H](c3cc(F)ccc3F)O[C@@H]1C(F)(F)F)C2 [HSK7653] . 90400

* * *

Experiment: Physicochemical parameters (log P, pKa) from experimental outcomes
Conditions: Measured (in vitro)
experimental readout: logP
A bare number is all that is needed in reply.

Specify measured logP for CS(=O)(=O)n1cc2c(n1)CN([C@@H]1C[C@H](N)[C@@H](c3cc(F)ccc3F)O[C@@H]1C(F)(F)F)C2 [HSK7653] . 1.42

* * *

Experiment: Single ascending dose clinical study in Chinese healthy volunteers (CTR20180791): pharmacokinetics
Assay type: in vivo, human
Conditions: human, in vivo, oral, 50 mg, 50 mg single dose, fed, Chinese healthy volunteers; read-out: VZ/F Obs
experimental readout: Vd/F (L/kg)
State just the number; it will be interpreted in L/kg.

Specify measured Vd/F for CS(=O)(=O)n1cc2c(n1)CN([C@@H]1C[C@H](N)[C@@H](c3cc(F)ccc3F)O[C@@H]1C(F)(F)F)C2 [HSK7653] . 1.37
